# System: Rattus norvegicus
# method.summary: Neurotoxicity in pilocarpine-induced status epilepticus Sprague-Dawley albino rat model assessed as minimal motor impairment at 100 mg/kg, ip after 0.5 hrs by rotarod test
# Assay type: toxicity, organism-based
# Set-up: dose 100 mg/kg, route intraperitoneal
# measurement.context: in vivo
test.readout: Activity

// below: answered compounds
CC(C)C(C)COC(N)=O (racemic)    Non-toxic
CCC(COC(N)=O)C(C)C (racemic)    Toxic
CCCC(CCC)COC(=O)NC    Toxic
CC1(C)C(COC(N)=O)C1(C)C    Toxic
CC(COC(N)=O)CC(C)(C)C (racemic)    Toxic

Prompt: For the compound CCC(C)C(CC)COC(N)=O (racemic) , what Activity is on record?
Completion: Toxic

Prompt: Try this compound next: CCCCC(CC)COC(N)=O (racemic)
Completion: Non-toxic

* * *

# Test system: Rattus norvegicus
# method.summary: Anticonvulsant activity in Sprague-Dawley albino rat assessed as protection against maximal electroshock-induced seizures at 30 mg/kg, po after 30 mins
# Format: functional, organism-based
# Set-up: dose 30 mg/kg
Active and inactive are the calls of the source. The calls are words filed in the database; no cut-off is given here.
Outcome field: choose from active, inactive

Prompt: What did this assay record as the result for `CC1(C)C(COC(N)=O)C1(C)C` ?
Completion: inactive

Prompt: Try this molecule next: CCCCC(CC)COC(N)=O (racemic)
Completion: inactive

Prompt: Try this molecule next: `CC(C)(C)COC(N)=O`
Completion: inactive

Prompt: Try this molecule next: `CCCC(CCC)COC(=O)NC`
Completion: inactive

Prompt: Try this molecule next: NC(=O)OCCc1ccccc1 [PHENYLETHYL CARBAMATE]
Completion: active

Prompt: Try this molecule next: CCC(COC(N)=O)CC(C)C (racemic)
Completion: inactive

Prompt: Try this molecule next: CCC(C)CCOC(N)=O (racemic)
Completion: inactive

* * *

# Test system: Mus musculus
# method.summary: Neurotoxicity in albino CF1 mouse assessed as minimal motor impairment at 30 mg/kg, ip after 0.5 hrs by rotarod test
# Format: toxicity, organism-based
# Design: dose 30 mg/kg, route intraperitoneal
# measurement.context: in vivo
test.readout: Activity

CCC(CC)COC(N)=O    Non-toxic
CCCC(COC(N)=O)C(C)CC (racemic)    Non-toxic
CCC(C)C(COC(N)=O)C(C)C (racemic)    Non-toxic
CCC(COC(N)=O)C(C)C (racemic)    Non-toxic
CCCCC(CC)COC(N)=O (racemic)    Non-toxic
CC(C)C(C)COC(N)=O (racemic)    Non-toxic
CCCC(COC(N)=O)C(C)C (racemic)    Non-toxic
CC1(C)C(COC(N)=O)C1(C)C    Non-toxic
CC(C)C(COC(N)=O)C(C)C    Non-toxic
CC(C)(C)COC(N)=O    Non-toxic

Prompt: For the compound CC(COC(N)=O)CC(C)(C)C (racemic) , what Activity is on record?
Completion: Non-toxic

Prompt: Try this compound next: NC(=O)OCCc1ccccc1 [PHENYLETHYL CARBAMATE]
Completion: Non-toxic

Prompt: Try this compound next: `CCCC(CCC)COC(N)=O`
Completion: Non-toxic

Prompt: Try this compound next: `CC(C)(C)CCOC(N)=O`
Completion: Toxic

Prompt: Try this compound next: CCC(C)C(CC)COC(N)=O (racemic)
Completion: Non-toxic

Prompt: Try this compound next: `CCCC(CCC)COC(=O)NC`
Completion: Non-toxic

Prompt: Try this compound next: CCC(COC(N)=O)CC(C)C (racemic)
Completion: Non-toxic

Prompt: Try this compound next: `CCCC(CCC)COC(=O)NC1CCCCC1`
Completion: Non-toxic

Prompt: Try this compound next: CCC(C)CCOC(N)=O (racemic)
Completion: Non-toxic

Hello, the source for this data is ChEMBL document CHEMBL2086252, in case you need it.
